Where these numbers come from: the supplement of paper PMC10567573

B1: FBF1 (parent)
chain: LQRASILDMRRDHEEQLQRLKLLK

variants of: B1; test: protein stability index of a GFP-peptide fusion (GPS, HEK-293T) (PSI 1-6); higher = more stable; conditions: c terminus: a fixed tail appended;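 note: lentivirally expressed fusions sorted by FACS into six bins by GFP to DsRed ratio, PSI derived from sequencing read proportions per bin multiplied by bin number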
Mark 1.0 for reported protein stability index of 4 or greater; mark 0.0 for anything smaller.

sequence.content	answer.label
LQRASILDMRRDHEEQLQRLKLLL	0.0
LRRASILDMRRDHEEQLQRLKLLK	0.0
LQRASILDMRRDCEEQLQRLKLLK	0.0
LQRASILDMRRDFEEQLQRLKLLK	0.0
LQRASILDMRRDHEEQVQRLKLLK	0.0
LQRCSILDMRRDHEEQLQRLKLLK	0.0
LQRASILDMRRDHEEALQRLKLLK	0.0
LQRASILDMTRDHEEQLQRLKLLK	0.0
LQRALILDMRRDHEEQLQRLKLLK	0.0
LQRAFILDMRRDHEEQLQRLKLLK	0.0
LQRASILAMRRDHEEQLQRLKLLK	0.0
LQRASILDMRRDHEWQLQRLKLLK	0.0
LQKASILDMRRDHEEQLQRLKLLK	0.0
LQRAKILDMRRDHEEQLQRLKLLK	0.0
LQRTSILDMRRDHEEQLQRLKLLK	0.0
LQRASILDMRRDHEEQLQRLKKLK	0.0
LQRASILDWRRDHEEQLQRLKLLK	0.0
LQRASILDMRRDHEEPLQRLKLLK	0.0
LQRASILDMRRDHETQLQRLKLLK	0.0
LQRASILDMRRDHEEQLERLKLLK	0.0
LQRACILDMRRDHEEQLQRLKLLK	0.0
LQRASILDMRRDHEEQQQRLKLLK	1.0
LQRASILHMRRDHEEQLQRLKLLK	0.0
LHRASILDMRRDHEEQLQRLKLLK	0.0
LQRASILDMRRDHEEQLQRDKLLK	1.0
LQRASILDMRRDHEEQLQREKLLK	1.0
LQRASILDMRRDHEEQLLRLKLLK	0.0
LQRASILDMRRDREEQLQRLKLLK	0.0
VQRASILDMRRDHEEQLQRLKLLK	0.0
LQRASGLDMRRDHEEQLQRLKLLK	1.0
LQRASILDMRRDHEEQLQRLKLEK	1.0
LQRASILDMRRDHEEQLQRLKRLK	0.0
LQRARILDMRRDHEEQLQRLKLLK	0.0
LQRASILDMRRDHEEQTQRLKLLK	1.0
LQRASILDMRRDHEEQLQVLKLLK	0.0
